Target: Signal transducer and activator of transcription 1-alpha/beta (Homo sapiens) (UniProt P42224)
Sequence (P42224 whole entry, looked up): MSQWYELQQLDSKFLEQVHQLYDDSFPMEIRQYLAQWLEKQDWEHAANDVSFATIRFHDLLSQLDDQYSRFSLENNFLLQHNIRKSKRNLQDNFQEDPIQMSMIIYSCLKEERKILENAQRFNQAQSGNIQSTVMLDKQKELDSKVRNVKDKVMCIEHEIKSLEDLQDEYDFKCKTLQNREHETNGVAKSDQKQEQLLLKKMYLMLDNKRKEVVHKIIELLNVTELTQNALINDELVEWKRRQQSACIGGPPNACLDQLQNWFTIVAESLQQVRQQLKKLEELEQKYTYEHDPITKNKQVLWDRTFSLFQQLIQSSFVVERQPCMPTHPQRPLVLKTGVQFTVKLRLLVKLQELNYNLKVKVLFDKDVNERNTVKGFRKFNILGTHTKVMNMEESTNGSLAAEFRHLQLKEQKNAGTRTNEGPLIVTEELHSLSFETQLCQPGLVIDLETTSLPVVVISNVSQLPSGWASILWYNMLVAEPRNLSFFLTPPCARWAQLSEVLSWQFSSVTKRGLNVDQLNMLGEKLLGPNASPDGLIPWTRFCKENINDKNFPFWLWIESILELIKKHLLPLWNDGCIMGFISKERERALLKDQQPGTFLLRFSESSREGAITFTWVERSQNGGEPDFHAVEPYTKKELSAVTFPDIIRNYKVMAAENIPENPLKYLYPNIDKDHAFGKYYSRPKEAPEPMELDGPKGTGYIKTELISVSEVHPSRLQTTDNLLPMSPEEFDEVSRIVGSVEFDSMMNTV
Experiment: inhibition of STAT1 reporter activity – cell-based, NIH 3T3, luciferase reporter, dose response (AID 1396)
Settings: NIH 3T3 fibroblasts
Calls of active or inactive are those of the source. The rule behind the calls is not given here.
Pick one: active, inactive

## Task Lab log entry: COC(=O)C1=CN(Cc2ccc(OC)c(OC)c2)C=C(C(=O)OC)C1c1cccs1 — outcome as called in the assay?
## Result inactive

## Task In this assay, the call recorded for Cc1ccc(C(=O)Nc2cccc(N(C)S(C)(=O)=O)c2)cc1S(=O)(=O)Nc1ccccc1 was what?
## Result inactive

## Task For Cc1ccccc1-c1noc(N)c1C#N , which call appears in the assay record?
## Result inactive

## Task Please let me know the test result on file for Cc1ccc2[nH]c3c(N4CCN(Cc5ccccc5)CC4)ncnc3c2c1 .
## Result inactive

## Task Short answer needed: outcome of this test for CCOC(=O)N1CCN(C(=O)c2ccc(CSc3ccc(Cl)cc3)cc2)CC1 ?
## Result inactive

## Task Outcome logged for CN1CCN(Cc2nc3ccccc3c(=O)n2Cc2nc(-c3ccc4ccccc4c3)cs2)CC1 in this assay:
## Result active

## Task What is the recorded call for this compound in the test? Cn1nnnc1Sc1ncnc2scc(-c3ccc(F)cc3)c12
## Result inactive

## Task Would you mind telling me which call this test gave CCOC(=O)N1CCN(C(=O)c2ccc(-n3c(=S)[nH]c4ccccc4c3=O)cc2)CC1 ?
## Result active

## Task What did this assay record as the result for CCn1c(O)c(/C=N/NC(=O)c2ccncc2)c(=O)n(CC)c1=S ?
## Result active

## Task Any idea what this test logged for Cc1ccc(-n2nc(C(=O)O)c3ccccc3c2=O)cc1C ?
## Result active

## Task Each compound tested received a call. Report the one for O=C(NNC(=O)c1cccc(S(=O)(=O)N2CCc3ccccc32)c1)c1ccccc1 .
## Result inactive

## Task Name the outcome recorded for COCC(C)NC(=O)CCS(=O)(=O)c1nc(-c2ccc(OC)cc2)cc(C(F)(F)F)n1 (centres undefined) in the assay.
## Result inactive

## Task Please share the test call associated with Cc1ccccc1NC(=O)C(=Cc1ccc(C(=O)O)cc1)C(=O)Nc1ccccc1C .
## Result inactive

## Task Tell me the recorded outcome of this test for COc1ccc(CNc2ncnc3cc(Cl)ccc23)cc1OC .
## Result inactive

---

Biological target: Signal transducer and activator of transcription 1-alpha/beta (Homo sapiens)
Test: inhibition of STAT1 reporter activity – cell-based, NIH 3T3, luciferase reporter, dose response (AID 1396)
Settings: NIH 3T3 fibroblasts
Active and inactive are the calls of the source. No rule for the calls is given here.
readoutKind: IC50

Previously resolved entries follow.
# molecule, IC50
rows = [
    ("COc1ccc(CCNc2ncnc3cc(OC)c(OC)cc23)cc1OC", "> 55.7 µM (inactive)"),
    ("COc1ccccc1-c1cc(C(F)(F)F)nc(S(C)(=O)=O)n1", "> 18.6 µM (inactive)"),
    ("Cc1ccc(S(=O)(=O)N2CCN(C(C(=O)Nc3ccc(F)cc3)c3ccccc3)CC2)cc1 (stereo not given)", "7.87 µM"),
    ("Cc1cccc(/C=C(\\c2nc3ccccc3[nH]2)S(=O)(=O)c2ccccc2)c1", "> 55.7 µM (inactive)"),
    ("CS(=O)(=O)c1nc(-c2ccc(F)cc2)cc(C(F)(F)F)n1", "inactive"),
]

Measured on Signal transducer and activator of transcription 1-alpha/beta (Homo sapiens), O=C(CSc1nc2ccccc2c(=O)[nH]1)c1ccc(O)cc1O has a documented IC50 of 9.39 µM

Assay Signal transducer and activator of transcription 1-alpha/beta (Homo sapiens), sample COC(=O)CCS(=O)(=O)c1nc(-c2ccccc2)cc(C(F)(F)F)n1 , IC50 read: inactive

Result for COc1ccc(-n2c(SCc3cccnc3)nc3c(c2=O)SCC3)cc1OC , tested on Signal transducer and activator of transcription 1-alpha/beta (Homo sapiens), IC50: inactive

Tested system Signal transducer and activator of transcription 1-alpha/beta (Homo sapiens); IC50 recorded for COc1ccc(-c2cc(C(F)(F)F)nc(S(=O)(=O)CCCC(=O)Nc3cccnc3Cl)n2)cc1OC was inactive

Readout IC50 for Cc1cc(NC(=O)CCCS(=O)(=O)c2nc(-c3cccs3)cc(C(F)(F)F)n2)no1 , test system Signal transducer and activator of transcription 1-alpha/beta (Homo sapiens), was inactive

---

Target: Signal transducer and activator of transcription 1-alpha/beta (Homo sapiens)
Test: inhibition of STAT1 reporter activity – cell-based, NIH 3T3, luciferase reporter, dose response (AID 1396)
Conditions: NIH 3T3 fibroblasts
Activity calls are given as the source filed them. The rule behind the calls is not given here.
readoutKind: IC50

Observe how each entry below is paired with its result.
# inputSmiles, tgt, IC50
measured = [
    ("CCOc1cc(-c2noc(N)c2C#N)cc(OCC)c1OCC", "Signal transducer and activator of transcription 1-alpha/beta (Homo sapiens)", "> 55.7 µM (inactive)"),
    ("CCN(CC)S(=O)(=O)c1ccc(N2CCOCC2)c(NC(=O)c2cc(-c3ccccn3)nc3ccccc23)c1", "Signal transducer and activator of transcription 1-alpha/beta (Homo sapiens)", "inactive"),
    ("COc1ccccc1-c1cc(C(F)(F)F)nc(S(=O)(=O)CCCC(=O)N2CCOCC2)n1", "Signal transducer and activator of transcription 1-alpha/beta (Homo sapiens)", "> 6.19 µM (inactive)"),
    ("CCn1c(=O)c2cc(C(=O)N3CCCC3)sc2c2ccccc21", "Signal transducer and activator of transcription 1-alpha/beta (Homo sapiens)", "inactive"),
]

Let us move to another entry and its IC50.
Please fill in: IC50 reported for CN1CCN(Cc2nc3ccccc3c(=O)n2Cc2nc(-c3cccc([N+](=O)[O-])c3)cs2)CC1 = inactive

---

Target: Signal transducer and activator of transcription 1-alpha/beta (Homo sapiens) (UniProt P42224)
Experiment: inhibition of STAT1 reporter activity – cell-based, NIH 3T3, luciferase reporter, dose response (AID 1396)
Conditions: NIH 3T3 fibroblasts
Calls of active or inactive are those of the source. No rule for the calls is given here.
Respond using exactly one of the listed classes: active, inactive

## Task Please state the recorded outcome for this compound: C#Cc1ccc([C@H]2C=C(C(=O)OCC=C)O[C@@H](OCC)[C@@H]2CCCO)cc1
## Result inactive

## Task Any idea what this test logged for O=C(c1ccco1)N1CCN(c2ncnc3c2[nH]c2ccc(Br)cc23)CC1 ?
## Result inactive

## Task What was the test verdict on CC1(C)Cc2c(ccc3ccccc23)C2=C(C(=O)N3CCCC3)C(=O)C(=O)N21 ?
## Result inactive

## Task Could you check what this test reported for Cc1ccc(-c2csc3ncnc(Sc4nnc(CN5CCCCCC5=O)o4)c23)cc1 ?
## Result active

## Task Each compound tested received a call. Report the one for Cn1c(C(=O)N2CCN(c3ccc([N+](=O)[O-])cc3)CC2)cc2c(=O)[nH]c3ccccc3c21 .
## Result inactive

## Task Called result for CCOC(=O)N1CCN(C(=O)/C=C/c2c(C)nn(-c3ccc(F)cc3)c2Cl)CC1
## Result inactive

## Task State the result this test recorded for O=C(c1ccc2c(c1)N(Cc1ccccc1)C(=O)c1ccccc1S2)N1CCCC1 .
## Result active

## Task Lab log entry: COc1ccccc1CNc1ncnc2cc(Cl)ccc12 — outcome as called in the assay?
## Result inactive

## Task For this compound, state the assay outcome: CCOC(=O)CCS(=O)(=O)c1nc(-c2ccccc2)cc(C(F)(F)F)n1
## Result inactive

## Task How did this test come out for COc1ccccc1-c1cc(C(F)(F)F)nc(S(=O)(=O)CCCC(=O)Nc2cccnc2Cl)n1 ?
## Result inactive

## Task How was CN1CCN(Cc2nc3ccccc3c(=O)n2Cc2nc(-c3ccccc3F)cs2)CC1 classified in this test?
## Result active

## Task Which result was noted for this compound in the test: O=C(c1ccc(Cl)cc1)N1CCN(c2ccnc3cc(Cl)ccc23)CC1
## Result inactive

## Task Record lookup: outcome of this test for O=c1cc(CSc2nc3ccccc3c(=O)[nH]2)c2ccc(O)cc2o1 ?
## Result active

## Task For COc1ccc(-c2cc(C(F)(F)F)nc(S(=O)(=O)CCCC(=O)Nc3cc(C)on3)n2)cc1OC , which call appears in the assay record?
## Result inactive

## Task Write down the call the test reported for this compound. Item: CCOC(=O)c1c(C)nc2sc3c(=O)n(-c4ccc(OC)cc4)nnc3c2c1-c1ccc(OC)cc1
## Result inactive

## Task Answer briefly: the call reported for COc1ccc(-c2cc(C(F)(F)F)nc(S(=O)(=O)CCCC(=O)Nc3cccc(O)c3)n2)cc1OC in this assay.
## Result inactive

## Task What call does the record list for Cc1cc(=O)n(C(NC(=O)c2ccccc2)C(=O)c2ccccc2)cn1 (stereo not given) ?
## Result active

## Task Write down the call the test reported for this compound. Item: CS(=O)(=O)c1nc(-c2ccco2)cc(C(F)(F)F)n1
## Result inactive

## Task Given COc1ccc(CCNC(=O)Cn2c(=O)n(-c3ccc(F)cc3)c(=O)c3sccc32)cc1OC , state the outcome it received in this test.
## Result inactive

## Task Please state the recorded outcome for this compound: CS(=O)(=O)c1nc(-c2ccccc2)cc(C(F)(F)F)n1
## Result active
